# assay-procedure: Pharmacokinetics, unchanged RAF265 in plasma
# Format: in vivo, human
# particulars: human, plasma, oral, 288 mg, First dose (PK run-in), DL 6, 288 mg; read-out: Tmax, Median
# Procedure: PK parameters included the maximum observed concentration (C max), time to reach C max (T max), area under the curve from time 0 to last measurable concentration (AUClast), time point of the last measurable concentration (T last), and terminal half‐life of elimination phase (T 1/2). Cycle 1 Day 1 and day 15, reported PK parameters include C max, T max, AUClast and T last. […] The point estimate and associated 90% CI for the slope parameter were determined for safety considerations.
outcome-measure: Tmax

- compound: "Cn1c(Nc2ccc(C(F)(F)F)cc2)nc2cc(Oc3ccnc(-c4ncc(C(F)(F)F)[nH]4)c3)ccc21 [RAF265]"
  outcome-measure: "Tmax"
  experimental-result: "3 h"

###

# assay-procedure: Pharmacokinetics, unchanged RAF265 in plasma
# Assay type: in vivo, human
# particulars: human, plasma, oral, 67 mg, Cycle 1 Day 15, DL 7, MD 67 mg; read-out: Tmax, Median
outcome-measure: Tmax (h)

- compound: "Cn1c(Nc2ccc(C(F)(F)F)cc2)nc2cc(Oc3ccnc(-c4ncc(C(F)(F)F)[nH]4)c3)ccc21 [RAF265]"
  experimental-result: 4

###

# assay-procedure: Pharmacokinetics, unchanged RAF265 in plasma
# Type: in vivo, human
# particulars: human, plasma, oral, 67 mg, Cycle 1 Day 15, DL 7.1, MD 67 mg; read-out: AUC(0-tlast), Mean (SD)

- chemical-smiles: "Cn1c(Nc2ccc(C(F)(F)F)cc2)nc2cc(Oc3ccnc(-c4ncc(C(F)(F)F)[nH]4)c3)ccc21"
  AUC(0-t), ng·h/mL: 35400

###

# assay-procedure: Pharmacokinetics, unchanged RAF265 in plasma
# Format: in vivo, human
# particulars: human, plasma, oral, 24 mg, Cycle 1 Day 15, DL 5, MD 24 mg; read-out: Tmax, Median
outcome-measure: Tmax (h)

- chemical-smiles: "Cn1c(Nc2ccc(C(F)(F)F)cc2)nc2cc(Oc3ccnc(-c4ncc(C(F)(F)F)[nH]4)c3)ccc21"
  unit-spec: "h"
  experimental-result: 2.75

###

# assay-procedure: Pharmacokinetics, unchanged RAF265 in plasma
# Format: in vivo, human
# particulars: human, plasma, oral, 144 mg, First dose (PK run-in), DL 5, 144 mg; read-out: T1/2, Median (converted)
outcome-measure: half-life (h)

- molecule: "Cn1c(Nc2ccc(C(F)(F)F)cc2)nc2cc(Oc3ccnc(-c4ncc(C(F)(F)F)[nH]4)c3)ccc21 [RAF265]"
  experimental-result: 182

###

# assay-procedure: Pharmacokinetics, unchanged RAF265 in plasma
# Assay type: in vivo, human
# particulars: human, plasma, oral, 2 mg, Cycle 1 Day 15, DL 1, MD 2 mg; read-out: AUC(0-tlast), Mean (SD)

- compound: "Cn1c(Nc2ccc(C(F)(F)F)cc2)nc2cc(Oc3ccnc(-c4ncc(C(F)(F)F)[nH]4)c3)ccc21 [RAF265]"
  AUC(0-t) (ng·h/mL): 2670

###

# assay-procedure: Pharmacokinetics, unchanged RAF265 in plasma
# Format: in vivo, human
# particulars: human, plasma, oral, 58 mg, Cycle 1 Day 1, DL 4, LD 58 mg; read-out: AUC(0-tlast), Mean (SD)

- compound: "Cn1c(Nc2ccc(C(F)(F)F)cc2)nc2cc(Oc3ccnc(-c4ncc(C(F)(F)F)[nH]4)c3)ccc21 [RAF265]"
  AUC(0-t), ng·h/mL: 7280
